Data origin, for the record: PubChem BioAssay AID1345083

Experiment: Cytotoxic Profiling in HEK 293 Cell Line of Diverse Libraries Using Quantitative High-Throughput Screening; further: nearly all actives have a fitted effect of over 60% in size; further: potency means the concentration at half of the fitted maximal effect
Conditions: HEK 293 viability, ATP luminescence (CellTiter-Glo), 48-72 h; series mostly up to 115 µM
Hit rate of the full screen: of about 94,000 compounds, about 6,200 (6.6%) were called active. About 31% were inconclusive and are not listed. This excerpt belongs to a sample that is enriched for actives.
outcome-measure: Potency

Use these answered entries as a reference point.
compound | Potency
O=C1NCc2ccccc2CC12CCCN(Cc1ccc(F)cc1O)C2 (stereo not drawn) | inactive
O=C(O)c1cccc(-c2ccccn2)c1 | inactive
COc1ccccc1Nc1ccnc(N2CCC(C(=O)NCc3ccc(C(F)(F)F)cc3)CC2)n1 | 31.6 µM (active)
O=C(c1ccc2cc[nH]c2c1)N1CCCN(c2cc(-c3ccc(Cl)cc3)[nH]n2)CC1 | 39.8 µM (active)
CNC(=O)[C@@H]1CN(C(=O)Cn2c(=O)oc3ccccc32)C[C@H]1c1nc(C)no1 | inactive

Recorded Potency of "COc1cc(=O)n2c(c1C(=O)Nc1ccc(Cl)c(F)c1)CCCC2" , please. inactive

Value lookup for Potency; key = "CCN(CC)CC(=O)N1CCC(Oc2ccccc2C)(C(=O)O)CC1" inactive

Sample COc1ccc(CNC(=O)c2ccc3c(c2)N(C)C2CCCCN2C3=O)c(OC)c1 (stereo not drawn) — what was its Potency? inactive
